Reported melting point is given for each of the following compounds.

These recorded examples may help you get a feel for the data.
CN1CCN(c2cc(Br)cc3c2c(=O)n(Cc2ccccc2Cl)c(=O)n3Cc2ccccc2)CC1 104 to 108 °C
CN1CCN(c2cc(Cl)cc3c2c(=O)n(Cc2ccc([N+](=O)[O-])cc2)c(=O)n3Cc2ccccc2)CC1 109 to 113 °C

Ask: For O=c1c2c(N3CCNCC3)cc(Cl)cc2n(Cc2ccccc2)c(=O)n1Cc1ccccc1[N+](=O)[O-] , write its melting point.
Reply: 129 to 134 °C

Ask: For the compound CN1CCN(c2cc(Cl)cc3c2c(=O)n(Cc2ccc(N)cc2)c(=O)n3Cc2ccccc2)CC1 , give its reported melting point.
Reply: 93 to 96 °C

Ask: State its melting point for this compound: CN1CCN(c2cc(Cl)cc3[nH]c(=O)n(Cc4ccccc4)c(=O)c23)CC1
Reply: 208 to 210 °C

Ask: Assign melting point to the following record: CN1CCN(c2cc(Cl)cc3c2c(=O)n(Cc2ccccc2Br)c(=O)n3Cc2ccccc2)CC1
Reply: 91 to 93 °C

Ask: Provide one value: measured melting point of CN1CCN(c2cc(Cl)cc3c2c(=O)n(Cc2ccccc2Cl)c(=O)n3Cc2ccccc2)CC1
Reply: 87 to 92 °C

Ask: Fill in melting point for record CN1CCN(c2cc(Cl)cc3c2c(=O)n(CC2CCCCC2)c(=O)n3Cc2ccccc2)CC1
Reply: 163 to 169 °C

----------
Experimental Target: 5-HT2a (human recombinant receptor, CHO-K1) (Homo sapiens, UniProt P28223)
Sequence (P28223 whole entry): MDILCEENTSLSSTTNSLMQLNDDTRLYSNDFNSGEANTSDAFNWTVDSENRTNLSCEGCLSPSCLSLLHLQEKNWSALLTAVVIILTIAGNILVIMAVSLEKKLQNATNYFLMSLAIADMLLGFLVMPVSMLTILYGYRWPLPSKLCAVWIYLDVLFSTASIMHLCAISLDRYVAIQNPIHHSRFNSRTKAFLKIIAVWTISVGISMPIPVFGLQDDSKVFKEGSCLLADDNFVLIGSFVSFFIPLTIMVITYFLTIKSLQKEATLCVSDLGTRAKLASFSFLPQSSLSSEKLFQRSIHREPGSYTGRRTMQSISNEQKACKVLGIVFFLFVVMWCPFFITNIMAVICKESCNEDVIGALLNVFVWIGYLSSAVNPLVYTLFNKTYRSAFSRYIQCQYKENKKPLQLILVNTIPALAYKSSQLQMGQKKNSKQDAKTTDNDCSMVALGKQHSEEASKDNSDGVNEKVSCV
Protocol Text: Radioligand binding assay, 5-HT2a
Measured IC50 of individual entries
Write the value in nM as a bare number.

Compound	Reading
CN1CCN(c2cc(Br)cc3c2c(=O)n(Cc2ccccc2Cl)c(=O)n3Cc2ccccc2)CC1 [Example 55]	130
O=c1c2c(N3CCNCC3)cc(Cl)cc2n(Cc2ccccc2)c(=O)n1CCCc1ccccc1 [Example 71]	733
CN1CCN(c2cc(Cl)cc3c2c(=O)n(CCCc2ccccc2)c(=O)n3Cc2ccccc2)CC1 [Example 43]	892

Ask: Identify IC50 associated with the compound CN1CCN(c2cc(Cl)cc3c2c(=O)n(Cc2cccc(Cl)c2)c(=O)n3Cc2ccccc2)CC1 [Example 18]
Reply: 1380

Ask: State its IC50: CN1CCN(c2cc(Br)cc3c2c(=O)n(Cc2ccccc2)c(=O)n3Cc2ccccc2)CC1 [Example 54]
Reply: 376

----------
Experimental Target: 5-HT1a (human recombinant receptor, CHO-K1) (Homo sapiens, UniProt P08908)
Sequence (P08908 1-422): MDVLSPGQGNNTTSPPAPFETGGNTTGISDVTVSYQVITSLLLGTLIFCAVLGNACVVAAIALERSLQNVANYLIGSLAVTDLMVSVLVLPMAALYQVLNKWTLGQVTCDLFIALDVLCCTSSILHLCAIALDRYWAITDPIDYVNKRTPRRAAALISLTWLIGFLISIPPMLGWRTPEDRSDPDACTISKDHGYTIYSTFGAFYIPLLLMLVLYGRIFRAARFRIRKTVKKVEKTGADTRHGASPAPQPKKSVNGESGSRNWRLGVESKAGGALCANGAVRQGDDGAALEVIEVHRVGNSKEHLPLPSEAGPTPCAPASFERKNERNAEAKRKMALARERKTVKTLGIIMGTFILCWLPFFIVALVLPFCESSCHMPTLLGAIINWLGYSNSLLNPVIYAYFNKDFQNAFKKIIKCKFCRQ
Protocol Text: Radioligand binding assay, 5-HT1a
Entries are sorted into classes by IC50 as follows: lo (below 2 µM), med (2 µM to below 3 µM), hi (3 µM or more)

Check out these entries, answers already filled in.
Compound	Assigned Category
CN1CCN(c2cc(Cl)cc3c2c(=O)n(Cc2ccccc2Cl)c(=O)n3Cc2ccccc2)CC1 [Example 17]	hi
CN1CCN(c2cc(Cl)cc3c2c(=O)n(CCCc2ccccc2)c(=O)n3Cc2ccccc2)CC1 [Example 43]	med
C[C@H](c1ccccc1)n1c(=O)c2c(N3CCN(C)CC3)cc(Cl)cc2n(Cc2ccccc2)c1=O [Example 40]	hi
COc1ccccc1Cn1c(=O)c2c(N3CCN(C)CC3)cc(Cl)cc2n(Cc2ccccc2)c1=O [Example 25]	hi
O=c1c2c(N3CCNCC3)cc(Cl)cc2n(Cc2ccccc2)c(=O)n1Cc1ccccc1F [Example 58]	med

Would you kindly look at the next entry?
Ask: Place this compound in its band: CN1CCN(c2cc(Cl)cc3c2c(=O)n(CCc2ccccc2)c(=O)n3Cc2ccccc2)CC1 [Example 42]
Reply: lo

----------
Here we list molecules with their recorded pIC50 when tested on human serotonin 5-HT6 receptor (Homo sapiens).
Sequence (P50406 whole entry): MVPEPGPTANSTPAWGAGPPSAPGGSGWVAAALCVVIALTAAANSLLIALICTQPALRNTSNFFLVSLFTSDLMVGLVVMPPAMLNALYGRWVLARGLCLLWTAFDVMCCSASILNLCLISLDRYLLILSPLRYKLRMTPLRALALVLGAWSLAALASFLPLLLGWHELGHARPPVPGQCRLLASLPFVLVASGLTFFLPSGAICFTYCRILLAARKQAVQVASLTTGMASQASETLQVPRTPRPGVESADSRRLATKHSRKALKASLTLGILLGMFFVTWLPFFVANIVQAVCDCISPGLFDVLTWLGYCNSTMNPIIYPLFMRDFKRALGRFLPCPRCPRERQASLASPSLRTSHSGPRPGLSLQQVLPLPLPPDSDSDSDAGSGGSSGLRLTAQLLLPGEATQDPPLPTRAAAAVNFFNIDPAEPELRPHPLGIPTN
Field pIC50 (float): negative decimal logarithm of the concentration in molar.

Some entries whose results are on file:
Molecule	pIC50
CN1CCN(c2cc(Cl)cc3c2c(=O)n(Cc2ccccc2N)c(=O)n3Cc2ccccc2)CC1 [Example 34]	8.60
CN1CCN(c2cc(Cl)cc3c2c(=O)n(CCCc2ccccc2)c(=O)n3Cc2ccccc2)CC1 [Example 43]	8.57
CN1CCN(c2cc(Cl)cc3c2c(=O)n(Cc2ccc(I)cc2)c(=O)n3Cc2ccccc2)CC1 [Example 21]	8.33
O=c1c2c(N3CCNCC3)cc(Cl)cc2n(Cc2ccccc2)c(=O)n1Cc1ccccc1Br [Example 60]	8.41
CN1CCN(c2cc(Cl)cc3c2c(=O)n(Cc2cccc(N)c2)c(=O)n3Cc2ccccc2)CC1 [Example 35]	7.40
CN1CCN(c2cc(Cl)cc3c2c(=O)n(Cc2ccc([N+](=O)[O-])cc2)c(=O)n3Cc2ccccc2)CC1 [Example 33]	7.81

Ask: Name the recorded pIC50 of the item CN1CCN(c2cc(Cl)cc3c2c(=O)n(Cc2cccc(Br)c2)c(=O)n3Cc2ccccc2)CC1 [Example 15] in your answer.
Reply: 8.57

----------
Experimental Target: 5-HT2c (human recombinant receptor, CHO-K1) (Homo sapiens, UniProt P28335)
Sequence (P28335 33-458): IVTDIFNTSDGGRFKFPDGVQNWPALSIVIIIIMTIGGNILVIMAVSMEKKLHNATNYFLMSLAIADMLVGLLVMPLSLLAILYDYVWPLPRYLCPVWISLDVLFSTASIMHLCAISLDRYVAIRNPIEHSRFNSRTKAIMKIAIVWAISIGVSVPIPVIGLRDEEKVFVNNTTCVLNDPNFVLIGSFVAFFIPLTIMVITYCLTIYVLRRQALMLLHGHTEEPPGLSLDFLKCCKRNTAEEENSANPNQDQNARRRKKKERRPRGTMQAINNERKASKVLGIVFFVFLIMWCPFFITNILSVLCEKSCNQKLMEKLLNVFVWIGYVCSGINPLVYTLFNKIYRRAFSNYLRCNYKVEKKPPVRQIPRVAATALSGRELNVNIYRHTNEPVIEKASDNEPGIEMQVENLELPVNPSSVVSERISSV
Protocol Text: Radioligand binding assay, 5-HT2c
Rule: IC50 below 500 nM gives 1 (yes), anything at or above gives 0 (no).

Some solved cases for reference:
CN1CCN(c2cc(Cl)cc3c2c(=O)n(Cc2ccccc2F)c(=O)n3Cc2ccccc2)CC1 1 (yes)
Cc1ccccc1Cn1c(=O)c2c(N3CCN(C)CC3)cc(Cl)cc2n(Cc2ccccc2)c1=O 1 (yes)
C[C@@H](c1ccccc1)n1c(=O)c2c(N3CCN(C)CC3)cc(Cl)cc2n(Cc2ccccc2)c1=O 0 (no)
CCCn1c(=O)c2c(N3CCN(C)CC3)cc(Cl)cc2n(Cc2ccccc2)c1=O 0 (no)
CN1CCN(c2cc(Cl)cc3c2c(=O)n(Cc2ccc(F)cc2)c(=O)n3Cc2ccccc2)CC1 0 (no)

Ask: Is it true that IC50 reported for CN1CCN(c2cc(Br)cc3c2c(=O)n(Cc2ccccc2Cl)c(=O)n3Cc2ccccc2)CC1 is less than 500 nM?
Reply: 1 (yes)

Ask: Please check: IC50 for O=c1c2c(N3CCNCC3)cc(Cl)cc2n(Cc2ccccc2)c(=O)n1Cc1ccccc1F , strictly under 500 nM or not?
Reply: 0 (no)

Ask: Strictly below 500 nM: is that where IC50 of Cc1ccc(Cn2c(=O)c3c(N4CCN(C)CC4)cc(Cl)cc3n(Cc3ccccc3)c2=O)o1 sits?
Reply: 1 (yes)

Ask: Please determine if CN1CCN(c2cc(Cl)cc3c2c(=O)n(CCc2ccccc2)c(=O)n3Cc2ccccc2)CC1 is below 500 nM in terms of IC50.
Reply: 1 (yes)

Ask: Given the entry CCCCCCCCn1c(=O)c2c(N3CCN(C)CC3)cc(Cl)cc2n(Cc2ccccc2)c1=O , would its reported IC50 be below 500 nM?
Reply: 0 (no)

Ask: Here's an entry: O=c1c2c(N3CCNCC3)cc(Cl)cc2n(Cc2ccccc2)c(=O)n1Cc1ccccc1Cl . Is its IC50 below 500 nM?
Reply: 1 (yes)

Ask: Would you kindly verify if IC50 of CN1CCN(c2cc(Cl)cc3c2c(=O)n(Cc2cccc(F)c2)c(=O)n3Cc2ccccc2)CC1 is strictly less than 500 nM?
Reply: 0 (no)

Ask: Please determine if COc1ccccc1Cn1c(=O)c2c(N3CCN(C)CC3)cc(Cl)cc2n(Cc2ccccc2)c1=O is below 500 nM in terms of IC50.
Reply: 0 (no)

Ask: Here's an entry: CN1CCN(c2cc(Cl)cc3c2c(=O)n(Cc2cccc(Cl)c2)c(=O)n3Cc2ccccc2)CC1 . Is its IC50 below 500 nM?
Reply: 0 (no)

Ask: Strictly below 500 nM in IC50? O=c1c2c(N3CCNCC3)cc(Cl)cc2n(Cc2ccccc2)c(=O)n1CCc1ccccc1
Reply: 0 (no)

Ask: Please let me know if CN1CCN(c2cc(Cl)cc3c2c(=O)n(Cc2ccccc2Br)c(=O)n3Cc2ccccc2)CC1 shows IC50 below 500 nM.
Reply: 0 (no)
